# assay system: T1, biotinylated mouse Sortilin monomer (mouse, UniProt Q6PHU5 74-754, limits assumed, biotinylated)
# T1 construct: also called Bt-msSort
# assay comment: ForteBio, Fab
attribute measured: pKd
Reminder that pKd means the negative base-10 logarithm of the concentration expressed in mol/L.

binder | pKd
S-15-6 Fab (Fab, V domains shown, Fab by papain digestion) VH: QVQLVQSGAEVKKPGASVKVSCKASGYTFTSRYMSWVRQAPGQGLEWMGIINPVGGSTSYAQKFQGRVTMTRDTSTSTVYMELSSLRSEDTAVYYCARDPSGIAAAGPASRYYYGMDVWGQGTTVTVSS VL: EIVMTQSPATLSVSPGERATLSCRASQSVSSNLAWYQQKPGQAPRLLIYGASTRATGIPARFSGSGSGTEFTLTISSLQSEDFAVYYCQQARLGPWTFGGGTKVEIK | 9.17
S-22-9 Fab (Fab, V domains shown, Fab by papain digestion) VH: QVQLVQSGAEVKKPGSSVKVSCKASGGTFRNYAISWVRQAPGQGLEWMGGIIPIGGWANYAQKFQGRVTITADESTSTAYMELSSLRSEDTAVYYCARQGRKTGYYYYYGMDVWGQGTTVTVSS VL: DIQMTQSPSTLSASVGDRVTITCRASQSISSWLAWYQQKPGKAPKLLIYKASSLESGVPSRFSGSGSGTEFTLTISSLQPDDFATYYCQQADGHITFGGGTKVEIK | 8.48
S-2-2 Fab (Fab, V domains shown, Fab by papain digestion) VH: QVQLVQSGAEVKKPGASVKVSCKASGYTFVAYYMHWVRQAPGQGLEWMGWINPNSGATRYAQKFQGRVTMTRDTSISTAYMELSRLRSDDTAVYYCARGKRSSGWYEGYGMDVWGQGTTVTVSS VL: DIQMTQSPSSLSASVGDRVTITCRASQSISSYLNWYQQKPGKAPKLLIYAASSLQSGVPSRFSGSGSGTDFTLTISSLQPEDFATYYCQQSDVSPITFGGGTKVEIK | 8.57
S-15-14 Fab (Fab, V domains shown, Fab by papain digestion) VH: QVQLVQSGAEVKKPGASVKVSCKASGYTFTSQYMSWVRQAPGQGLEWMGIINPYGGSTSYAQKFQGRVTMTRDTSTSTVYMELSSLRSEDTAVYYCARDPSGIAAAGPASRYYYGMDVWGQGTTVTVSS VL: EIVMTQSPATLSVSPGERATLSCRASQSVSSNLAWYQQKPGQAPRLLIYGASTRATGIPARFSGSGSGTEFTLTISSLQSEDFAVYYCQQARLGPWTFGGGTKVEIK | 9.12

Check the records and state pKd for S-2-11 Fab (Fab, V domains shown, Fab by papain digestion) VH: QVQLVQSGAEVKKPGASVKVSCKASGYTFLAYYMHWVRQAPGQGLEWMGWINPSWGSTSYAQKFQGRVTMTRDTSISTAYMELSRLRSDDTAVYYCARGKRSSGWYEGYGMDVWGQGTTVTVSS VL: DIQMTQSPSSLSASVGDRVTITCRASQSISSYLNWYQQKPGKAPKLLIYAASSLQSGVPSRFSGSGSGTDFTLTISSLQPEDFATYYCQQSDVSPITFGGGTKVEIK
8.12
